Data provenance is patent US8791100B2.

biological target: human S1P1 receptors (Homo sapiens (Human), UniProt P21453); experiment: Human S1P1 Receptor Calcium FLIPR Antagonist Assay (HeLa Gα16 S1P1); conditions: relative antagonism vs probing agonist GNF-AC-1 at EC80, HeLa-S1P1/Gα16 cells
Sequence (P21453 whole entry): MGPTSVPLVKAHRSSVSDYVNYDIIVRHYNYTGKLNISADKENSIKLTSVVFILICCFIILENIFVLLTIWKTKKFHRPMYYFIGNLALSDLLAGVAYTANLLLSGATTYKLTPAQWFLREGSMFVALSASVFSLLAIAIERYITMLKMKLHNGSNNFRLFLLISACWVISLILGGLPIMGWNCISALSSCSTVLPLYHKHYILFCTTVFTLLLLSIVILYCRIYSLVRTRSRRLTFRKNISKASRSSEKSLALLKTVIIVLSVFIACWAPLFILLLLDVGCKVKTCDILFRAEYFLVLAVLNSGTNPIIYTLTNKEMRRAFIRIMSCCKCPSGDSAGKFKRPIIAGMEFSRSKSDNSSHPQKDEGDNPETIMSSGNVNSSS
recordedEndpoint: IC50 (nM)
Express your answer in nM, writing the number without its unit.

Problem: Give a short answer stating reported IC50 for Cc1cc([C@H](Nc2ccc(C)c(CN3CCC(C)(C(=O)O)C3)c2)C(F)(F)F)ccc1Cl (stereo partly shown) [Example 83] .
Solution: 2.9

Problem: Check the records and state IC50 for CCC(Nc1ccc(C)c(CN2CC(C(=O)O)C2)c1)c1ccc(Cl)c(C)c1 (stereo not shown) [Example 4]
Solution: 0.2

Problem: // fetch IC50 given entry CC[C@@H](Nc1ccc(Cl)c(CN2CC(C(=O)O)C2)c1)c1ccc(Cl)c(C)c1 [Example 62]
Solution: 0.9

Shifting focus to the compound that follows.
Problem: Return IC50 (reported value) for this compound: CC[C@@H](Nc1cccc(CN2CC[C@@H](C(=O)O)C2)c1F)c1ccc(Cl)c(C)c1 [Example 25]
Solution: 3.3

----------
biological target: human S1P1 receptors (Homo sapiens (Human)); assay: Human S1P1 Receptor Calcium FLIPR Antagonist Assay (HeLa Gα16 S1P1); conditions: relative antagonism vs probing agonist GNF-AC-1 at EC80, HeLa-S1P1/Gα16 cells
recordedEndpoint: IC50 (nM)
Quick note: give the figure in nM, leave out the unit.

Guide cases for IC50, answers given:
Problem: Give me measured IC50, please, for this molecule: Cc1cc([C@H](Nc2ccc(Cl)c(CN3CC(C(=O)O)C3)c2)C(C)C)cc(C)c1Cl
Solution: 1.7

Problem: Supply measured IC50 of CC[C@@H](Nc1cccc(CN2CC(C(=O)O)C2)c1)c1ccc(Cl)c(C)c1 in your reply.
Solution: 0.9

Problem: Report IC50, nothing else, for this molecule: CC[C@@H](Nc1ccc(C)c(CNCC(C)(C)C(=O)O)c1)c1cc(C)c(Cl)c(C)c1
Solution: 24.5

Consider the record given below.
Problem: # return recorded IC50 for input CCC(c1cccc(N[C@H](CC)c2ccc(Cl)c(C)c2)c1)N1CC(C(=O)O)C1 (stereo partly shown)
Solution: 4.7

----------
Target: human S1P1 receptors (Homo sapiens (Human), UniProt P21453)
Test: Human S1P1 Receptor Calcium FLIPR Antagonist Assay (HeLa Gα16 S1P1)
Details: relative antagonism vs probing agonist GNF-AC-1 at EC80, HeLa-S1P1/Gα16 cells
Source text: Human S1P1 Receptor Calcium FLIPR Antagonist Assay […]
This section presents molecules with their documented IC50 values.
Express the result in nM but write the number alone.

Problem: Return value of IC50 for input CC[C@@H](Nc1cccc(CN2CC[C@@H](C(=O)O)C2)c1)c1ccc(Cl)c(C)c1 , no commentary.
Solution: 4

Problem: Report IC50, nothing else, for this molecule: CC[C@@H](Nc1ccc(C)c(CN2CC(C(=O)O)C2)c1)c1ccc(Cl)c(C)c1
Solution: 0.8

Problem: Give the measured IC50 for Cc1cc([C@H](Nc2ccc(C(F)(F)F)c(CN3CC(C(=O)O)C3)c2)C(F)(F)F)ccc1Cl
Solution: 0.8

Problem: Input Cc1cc([C@H](Nc2ccc(C)c(CN3CC(C(=O)O)C3)c2)C(F)(F)F)ccc1Cl , output reported IC50.
Solution: 0.1

Problem: Input CC[C@@H](Nc1cc(CN2CC(C(=O)O)C2)c(Cl)cn1)c1ccc(Cl)c(C)c1 , output reported IC50.
Solution: 0.6

Continuing:
Problem: Tell us which IC50 value is on record for CC[C@@H](Nc1ccc(C)c(CN2CC[C@@H](C(=O)O)C2)c1)c1ccc(Cl)c(C)c1
Solution: 1

Problem: Let me know recorded IC50 for Cc1cc([C@H](Nc2cc(CN3CC[C@@H](C(=O)O)C3)c(Cl)cn2)C(F)(F)F)ccc1Cl , thanks.
Solution: 0.4

Problem: Fill in reported IC50 for this entry: CCC(Nc1cc(C)cc(CN2CC(C(=O)O)C2)c1)c1ccc(Cl)c(C)c1 (centres unmarked)
Solution: 0.4

----------
The entries below are paired with their reported IC50.
molecular target: human S1P1 receptors (Homo sapiens (Human)); assay: Human S1P1 Receptor Calcium FLIPR Antagonist Assay (HeLa Gα16 S1P1); settings: relative antagonism vs probing agonist GNF-AC-1 at EC80, HeLa-S1P1/Gα16 cells
Answer by giving the amount and then stating its unit.

See these solved cases before continuing.
Problem: Quote IC50 reported for Cc1cc([C@H](Nc2cccc(CN3CC(C(=O)O)C3)c2)C(F)(F)F)ccc1Cl please.
Solution: 0.8 nM

Problem: Please give measured IC50 of the following entry: CC[C@@H](Nc1cccc(CN2CC(C)(C(=O)O)C2)c1)c1ccc(Cl)c(C)c1
Solution: 1.5 nM

Problem: Recall and state the measured IC50 for Cc1cc([C@H](Nc2ccc(C)c(CNCCC(=O)O)c2C)C(F)(F)F)ccc1Cl .
Solution: 0.4 nM

Problem: Please supply the value of reported IC50 for the item Cc1cc([C@H](Nc2ccc(C)c(CN3CC[C@@H](C(=O)O)C3)c2C)C(F)(F)F)ccc1Cl
Solution: 0.9 nM

Problem: Look up IC50 of CC[C@@H](Nc1ccc(C)c(CNC[C@H](C)C(=O)O)c1)c1cc(C)c(Cl)c(C)c1 and report it.
Solution: 3.9 nM

***
Problem: Return the recorded IC50 value; entry: Cc1cc([C@H](Nc2ccc(Cl)c(CN3CC(C(=O)O)C3)c2)C(C)C)ccc1Cl
Solution: 1.1 nM

Problem: Look up IC50 of CC[C@@H](Nc1cc(CN2CC[C@@H](C(=O)O)C2)c(Cl)cn1)c1ccc(Cl)c(C)c1 and report it.
Solution: 0.5 nM

Problem: Quote IC50 reported for CC[C@@H](Nc1cccc(CN2CC(C(=O)O)C2)c1)c1cc(C)c(Cl)c(C)c1 please.
Solution: 1.9 nM

----------
molecular target: human S1P1 receptors (Homo sapiens (Human), UniProt P21453); experiment: Human S1P1 Receptor Calcium FLIPR Antagonist Assay (HeLa Gα16 S1P1); conditions: relative antagonism vs probing agonist GNF-AC-1 at EC80, HeLa-S1P1/Gα16 cells
recordedEndpoint: pIC50
# reply with the number alone; pIC50 is -log10 of concentration in mol/L

Problem: Return the recorded pIC50 value; entry: CC[C@@H](Nc1cccc(CN2CC(C(=O)O)C2)c1F)c1ccc(Cl)c(C)c1 [Example 24]
Solution: 8.72

Continuing:
Problem: Read off the recorded pIC50 for Cc1cc(C(Nc2cccc(CN3CC(C(=O)O)C3)c2)C(C)C)ccc1Cl (centres unmarked) [Example 17]
Solution: 8.80

Problem: Write down pIC50 measured for item CC[C@@H](Nc1cc(CN2CC(C(=O)O)C2)ccc1F)c1ccc(Cl)c(C)c1 [Example 26]
Solution: 8.68

Problem: Read the entry CCc1ccc(N[C@H](CC)c2ccc(Cl)c(C)c2)cc1CN1CC[C@@H](C(=O)O)C1 [Example 36] and write its reported pIC50.
Solution: 8.43

Problem: Return the recorded pIC50 value; entry: CCC(Nc1cccc(CN2CC[C@@H](C(=O)O)C2)c1C)c1ccc(Cl)c(C)c1 (some centres unmarked) [Example 14]
Solution: 8.82
